# system: ΔF508-CFTR (Homo sapiens, UniProt P13569, DEL508-508)
# Sequence (P13569 with tags, fused parts or gaps DEL508-508): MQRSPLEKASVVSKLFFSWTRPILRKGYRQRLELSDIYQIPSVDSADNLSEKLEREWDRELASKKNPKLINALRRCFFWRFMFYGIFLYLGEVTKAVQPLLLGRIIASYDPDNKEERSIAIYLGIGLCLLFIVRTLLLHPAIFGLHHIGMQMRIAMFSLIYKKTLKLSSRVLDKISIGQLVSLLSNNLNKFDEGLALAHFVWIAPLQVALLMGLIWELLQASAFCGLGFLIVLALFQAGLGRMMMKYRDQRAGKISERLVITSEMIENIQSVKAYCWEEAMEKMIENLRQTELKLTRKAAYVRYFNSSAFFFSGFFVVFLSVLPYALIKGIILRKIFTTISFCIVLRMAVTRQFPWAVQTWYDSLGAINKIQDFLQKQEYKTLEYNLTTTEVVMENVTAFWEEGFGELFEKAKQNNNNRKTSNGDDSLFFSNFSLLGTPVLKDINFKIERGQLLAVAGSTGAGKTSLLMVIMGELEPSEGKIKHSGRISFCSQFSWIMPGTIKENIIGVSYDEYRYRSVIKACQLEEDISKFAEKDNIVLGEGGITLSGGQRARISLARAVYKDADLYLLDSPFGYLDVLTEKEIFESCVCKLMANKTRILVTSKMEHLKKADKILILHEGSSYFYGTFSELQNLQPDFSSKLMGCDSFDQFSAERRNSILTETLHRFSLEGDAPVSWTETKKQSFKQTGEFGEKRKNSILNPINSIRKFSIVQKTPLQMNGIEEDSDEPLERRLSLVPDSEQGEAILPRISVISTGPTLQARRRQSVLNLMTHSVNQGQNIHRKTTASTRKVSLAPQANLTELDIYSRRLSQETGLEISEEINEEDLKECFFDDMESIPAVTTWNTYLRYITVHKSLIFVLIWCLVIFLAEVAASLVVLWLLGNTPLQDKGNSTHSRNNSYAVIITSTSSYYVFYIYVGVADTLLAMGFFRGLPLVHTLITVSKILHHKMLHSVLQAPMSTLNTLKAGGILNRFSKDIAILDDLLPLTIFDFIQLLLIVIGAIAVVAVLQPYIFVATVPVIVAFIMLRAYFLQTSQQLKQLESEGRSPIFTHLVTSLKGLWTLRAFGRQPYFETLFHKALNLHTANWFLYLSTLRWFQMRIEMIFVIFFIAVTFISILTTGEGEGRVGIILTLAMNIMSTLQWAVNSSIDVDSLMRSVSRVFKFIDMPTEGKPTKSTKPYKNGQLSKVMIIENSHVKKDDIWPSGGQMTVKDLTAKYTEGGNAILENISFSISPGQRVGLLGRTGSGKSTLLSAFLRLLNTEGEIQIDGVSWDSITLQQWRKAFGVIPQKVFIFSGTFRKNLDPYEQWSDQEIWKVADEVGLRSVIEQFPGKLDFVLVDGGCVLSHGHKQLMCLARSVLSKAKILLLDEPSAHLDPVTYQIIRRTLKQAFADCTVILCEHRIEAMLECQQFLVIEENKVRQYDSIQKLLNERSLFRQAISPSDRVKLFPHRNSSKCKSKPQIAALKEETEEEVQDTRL
# assay summary: Assays for detecting and measuring ΔF508-CFTR correction properties (membrane potential optical assay; Table 3 does not say which assay)
# assay context: IC50/EC50 bins; NIH3T3 mouse fibroblasts stably expressing ΔF508-CFTR; read-out: Binned EC50
pEC50: −log10 of the molar value.
readout label: pEC50

query: Fill in: pEC50 of O=C(O)c1ccc(-c2nc(NC(=O)C3(c4ccc5c(c4)OC(F)(F)O5)CC3)cc3ccccc23)cc1 [Compound 5] is ___
result: ≥ 5.70

query: Subsequent entry: COc1ccc(C2(C(=O)Nc3cc4ccccc4c(N4CCN(c5ccccc5)C(=O)C4)n3)CC2)cc1 [Compound 14]
result: ≥ 5.70

Reference source: patent US8722704B2
